Biological target: MOZ-KAT6A (Homo sapiens, UniProt Q92794, A567V)
Construct: encoding amino acid residues 507 to 778 (Uniprot Q92794-1) of human KAT6A; made in house; host or cells: E. coli BL21 DE3
Sequence (Q92794 507-778 A567V limits assumed): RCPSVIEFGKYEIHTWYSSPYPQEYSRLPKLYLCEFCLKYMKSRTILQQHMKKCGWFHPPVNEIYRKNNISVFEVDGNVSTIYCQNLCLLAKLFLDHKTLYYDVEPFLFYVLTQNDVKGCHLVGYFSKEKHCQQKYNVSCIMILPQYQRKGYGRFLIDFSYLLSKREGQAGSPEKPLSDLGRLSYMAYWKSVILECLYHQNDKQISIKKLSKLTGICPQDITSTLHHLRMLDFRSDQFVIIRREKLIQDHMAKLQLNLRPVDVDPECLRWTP
Assay: Acetyltransferase biochemical assay (AlphaScreen), KAT6A
Conditions: Table 2 (MOZ-KAT6A); 10 μM Acetyl coenzyme A, histone H3.1, 5 nM enzyme
pIC50: −log10 of the molar value.
metric: pIC50

// solved cases for pIC50 follow
{"columns": ["compound", "pIC50"],
 "data": [
  ["O=C(NCC(c1ccccc1)c1ncco1)C1=Nc2ccc(F)cc2S(=O)(=O)N1 (centres unmarked) [Example 36]", 6.18],
  ["[C-]#[N+]c1ccc2c(c1)S(=O)(=O)NC(C(=O)NCC(c1ccccc1)c1ncco1)=N2 (single isomer, unassigned) [Example 143]", 6.46],
  ["O=C(NCC(c1ccccc1)c1ccccc1)C1=Nc2ccc(-c3cccnc3)cc2S(=O)(=O)N1", 6.11],
  ["O=C(NCCc1ccccc1-c1ncco1)C1=Nc2ccccc2S(=O)(=O)N1", 5.55],
  ["O=C(NCC(c1ccccc1)c1ncco1)C1=Nc2cnccc2S(=O)(=O)N1 (centres unmarked)", 4.44]
]}

(a) O=C(NCCc1ccccc1OC(F)(F)F)C1=Nc2ccc(I)cc2S(=O)(=O)N1
(b) O=C(NCC(c1ccccc1)c1ccccc1)C1=Nc2ccc(Br)cc2S(=O)(=O)N1
(c) CNC(=O)C(CNC(=O)C1=Nc2ccccc2S(=O)(=O)N1)c1ccccc1 (centres unmarked)
Arrange items by their pIC50 values in increasing order. // ordering of labels required in reply
c, a, b

* * *

Target: HBO-KAT7 (Homo sapiens, UniProt O95251)
Construct: encoding amino acid residues 325 to 611 (Uniprot 095251-1) of human KAT7; made in house; host or cells: E. coli BL21 DE3 RIL
Sequence (O95251 with tags, fused parts or gaps): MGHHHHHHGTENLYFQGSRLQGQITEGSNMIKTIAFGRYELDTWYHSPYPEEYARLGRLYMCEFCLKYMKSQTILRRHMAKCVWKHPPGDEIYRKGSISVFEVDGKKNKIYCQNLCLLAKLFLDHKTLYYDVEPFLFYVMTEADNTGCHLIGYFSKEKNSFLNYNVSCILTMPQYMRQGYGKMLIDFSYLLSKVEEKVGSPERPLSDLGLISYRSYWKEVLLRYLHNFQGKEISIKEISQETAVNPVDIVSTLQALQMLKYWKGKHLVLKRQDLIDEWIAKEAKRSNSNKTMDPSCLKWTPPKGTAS
Assay: Revised Acetyltransferase Biochemical Assay, KAT7
Settings: Table 9 (HBO-KAT7), 1 μM Acetyl coenzyme A
pIC50: −log10 of the molar value.
metric: pIC50

Worked examples follow.
{"columns": ["molecule", "target_under_test", "reported_measurement"],
 "data": [
  ["O=C(NCC(c1ccccc1)c1ncco1)C1=Nc2ccc(-c3cscn3)cc2S(=O)(=O)N1 (stereo not drawn)", "HBO-KAT7 (Homo sapiens, UniProt O95251)", 6.38],
  ["O=C(NCC(c1cccc(Cl)c1)c1ncco1)C1=Nc2ccc(Cl)cc2S(=O)(=O)N1 (stereo not drawn)", "HBO-KAT7 (Homo sapiens, UniProt O95251)", 6.29],
  ["Cc1ncccc1-c1ccccc1CCNC(=O)C1=Nc2ccccc2S(=O)(=O)N1", "HBO-KAT7 (Homo sapiens, UniProt O95251)", 4.67]
]}

(I) O=C(NCC(c1cccc(O)c1)c1ncco1)C1=Nc2ccc(Br)cc2S(=O)(=O)N1 (stereo not drawn)
(II) N#Cc1cccc(C(CNC(=O)C2=Nc3ccccc3S(=O)(=O)N2)c2ncco2)c1 (stereo not drawn)
(III) Cn1cc(-c2ccc3c(c2)S(=O)(=O)NC(C(=O)NCC(c2ccccc2)c2ncco2)=N3)cn1 (stereo not drawn)
Please rank these molecules by pIC50 in descending order. Form entry: labels listed in requested order.
I, II, III
(I: 7.30, II: 5.35, III: 4.92)

(I) COCc1nnc(C(CNC(=O)C2=Nc3ccc(I)cc3S(=O)(=O)N2)c2ccccc2)o1 (stereo not drawn)
(II) O=C(NCCc1ccccc1-c1ncco1)C1=Nc2ccc(I)cc2S(=O)(=O)N1
API: POST /compare with I and II ; response names the item with higher pIC50. Output the label that corresponds to your choice.
II
(II: 6.89, I: 6.11)

(I) O=C(NCC(c1cccc(O)c1)c1ncco1)C1=Nc2ccc(I)cc2S(=O)(=O)N1 (stereo not drawn)
(II) COc1cccc(C(CNC(=O)C2=Nc3ccc(Br)cc3S(=O)(=O)N2)c2ncco2)c1 (stereo not drawn)
(III) CNC(=O)c1ccc2c(c1)S(=O)(=O)NC(C(=O)NCC(c1ccccc1)c1ncco1)=N2 (stereo not drawn)
(IV) O=C(NCC(c1ncco1)c1ccccc1F)C1=Nc2ccc(Cl)cc2S(=O)(=O)N1 (stereo not drawn)
(V) O=C(NCC(F)(F)c1ccccc1)C1=Nc2ccc(I)cc2S(=O)(=O)N1
Order the records by pIC50, with each subsequent value no larger than the one before. Give the labels in the order requested.
I, IV, II, III, V
(I: 7.70, IV: 7.14, II: 6.67, III: 6.45, V: 6.06)

(A) COc1ccccc1C(CNC(=O)C1=Nc2ccc(Cl)cc2S(=O)(=O)N1)c1ncco1 (stereo not drawn)
(B) O=C(NCC(c1ccccc1)c1nnc(CC(F)(F)F)o1)C1=Nc2ccc(I)cc2S(=O)(=O)N1 (stereo not drawn)
Compare A and B and name the one whose reported pIC50 is smaller. # respond with the chosen item's label
B

(1) O=C(NCCc1ccccc1-n1cccn1)C1=Nc2ccc(I)cc2S(=O)(=O)N1
(2) O=C(NCC(c1ccccc1)c1ncco1)C1=Nc2ccc(I)cc2S(=O)(=O)N1 (single isomer, unassigned) [Example 147]
(3) O=C(NCCC1CCCCC1)C1=Nc2ccc(-c3c[nH]nn3)cc2S(=O)(=O)N1
(4) O=C(NCC(c1ccccc1)c1nncs1)C1=Nc2ccc(I)cc2S(=O)(=O)N1 (stereo not drawn)
Ascending by pIC50, please. Could you list the labels in the order requested?
3, 4, 1, 2

(I) O=C(NCC1(c2ncco2)CCCC1)C1=Nc2ccccc2S(=O)(=O)N1
(II) O=C(NCC(c1ncco1)c1ccccc1-c1ccccc1)C1=Nc2ccccc2S(=O)(=O)N1 (stereo not drawn)
// compare measured pIC50, left I , right II , return larger Give the label under which the chosen entry appears.
II

(P) COCc1ccccc1C(CNC(=O)C1=Nc2ccccc2S(=O)(=O)N1)c1ncco1 (stereo not drawn)
(Q) CS(=O)(=O)c1ccc2c(c1)S(=O)(=O)NC(C(=O)NCC(c1ccccc1)c1ncco1)=N2 (stereo not drawn)
Between item P and item Q , which reported pIC50 is smaller? Lab log: write the label of the selected item as the result.
P

(P) O=C(NCC1(c2ccccn2)CCCC1)C1=Nc2ccc(Cl)cc2S(=O)(=O)N1
(Q) O=C(NCC(c1ccccc1)c1ncco1)C1=Nc2ccc(-c3cn[nH]c3)cc2S(=O)(=O)N1 (stereo not drawn)
When P and Q are compared, which has the higher number for pIC50? // output: label of the selected item
Q
(Q: 5.29, P: 5.08)

FYI, the data here is from patent US20210380548A1.
